Recorded values, source ChEMBL document CHEMBL3867480.

# System Tested: Stromelysin-1 (Homo sapiens, UniProt P08254)
# Sequence (P08254 whole entry): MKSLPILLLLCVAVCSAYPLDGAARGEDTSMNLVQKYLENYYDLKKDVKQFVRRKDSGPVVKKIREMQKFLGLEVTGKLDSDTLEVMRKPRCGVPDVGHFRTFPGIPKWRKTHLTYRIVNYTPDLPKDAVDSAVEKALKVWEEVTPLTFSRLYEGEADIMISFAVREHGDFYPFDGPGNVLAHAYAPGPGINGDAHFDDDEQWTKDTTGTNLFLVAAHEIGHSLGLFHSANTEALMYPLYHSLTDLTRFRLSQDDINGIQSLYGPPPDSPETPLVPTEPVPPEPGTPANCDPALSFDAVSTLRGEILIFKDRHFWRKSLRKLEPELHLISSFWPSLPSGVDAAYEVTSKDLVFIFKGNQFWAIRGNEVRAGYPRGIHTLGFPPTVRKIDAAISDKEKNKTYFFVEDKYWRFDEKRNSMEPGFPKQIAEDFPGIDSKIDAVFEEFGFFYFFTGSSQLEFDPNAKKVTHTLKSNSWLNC
# Measurement Protocol: Inhibition of recombinant human […]-activated MMP3 using Cy3-PLGLK(Cy5Q)AR-NH2 as substrate measured after 40 mins by spectrofluorimetric method
Parameter: IC50. Scope: all listed entries.
Your answer should be a plain number; it is taken to be in nM.

Look over these answered cases.
Compound Smiles	System Tested	Result Units	IC50
O=C(NCc1cccc(N2CCN(C(=O)Cc3n[nH]c(=O)[nH]3)CC2)c1)c1nc2ccccc2c(=O)[nH]1	Stromelysin-1 (Homo sapiens, UniProt P08254)	nM	23
CC(C)[C@H](NS(=O)(=O)c1ccc(-c2cccc(CNC(=O)c3nc4ccccc4c(=O)[nH]3)c2)cc1)C(=O)O	Stromelysin-1 (Homo sapiens, UniProt P08254)	nM	30
CCOCCC1(Oc2ccc(-c3cccc(CNC(=O)c4nc5ccccc5c(=O)[nH]4)c3)cc2)C(=O)NC(=O)NC1=O	Stromelysin-1 (Homo sapiens, UniProt P08254)	nM	3300

# input What value of measured IC50 is listed for `CC(C)[C@H](NS(=O)(=O)c1ccc(-c2cccc(CNC(=O)c3nc4ccccc4c(=O)[nH]3)c2)cc1)C(=O)NO` ?
# output 1.5

---

# System Tested: Stromelysin-2 (Homo sapiens, UniProt P09238)
# Sequence (P09238 whole entry): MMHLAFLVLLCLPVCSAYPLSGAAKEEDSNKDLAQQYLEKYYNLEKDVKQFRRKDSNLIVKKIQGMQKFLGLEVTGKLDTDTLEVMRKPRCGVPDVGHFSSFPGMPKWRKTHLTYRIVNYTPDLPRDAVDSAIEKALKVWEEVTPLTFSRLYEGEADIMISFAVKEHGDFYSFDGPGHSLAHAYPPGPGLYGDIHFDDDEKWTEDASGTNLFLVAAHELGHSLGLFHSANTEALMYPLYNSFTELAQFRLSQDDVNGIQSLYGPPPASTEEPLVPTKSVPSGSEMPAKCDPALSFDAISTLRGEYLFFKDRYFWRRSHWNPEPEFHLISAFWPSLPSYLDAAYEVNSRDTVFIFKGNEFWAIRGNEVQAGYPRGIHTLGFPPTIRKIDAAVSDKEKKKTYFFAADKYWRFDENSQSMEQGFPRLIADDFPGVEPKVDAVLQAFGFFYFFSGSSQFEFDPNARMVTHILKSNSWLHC
# Measurement Protocol: Inhibition of recombinant human […]-activated MMP10 using Cy3-PLGLK(Cy5Q)AR-NH2 as substrate measured after 40 mins by spectrofluorimetric method
One threshold, 200 nM, splits the recorded IC50 values: lower ones are y, equal or higher ones are n.

# input Strictly below 200 nM: is that where IC50 of `O=C(NCc1cccc(OCCCOc2nc[nH]n2)c1)c1nc2scc(-c3cccc(Cl)c3)c2c(=O)[nH]1` sits?
# output n

# input Subsequent entry: `O=C(NCc1cccc(OCCCOc2nc[nH]n2)c1)c1nc2ccccc2c(=O)[nH]1`
# output n

---

Parameter: IC50. Scope: all listed entries.
# System Tested: Interstitial collagenase (Homo sapiens, UniProt P03956)
# Sequence (P03956 whole entry): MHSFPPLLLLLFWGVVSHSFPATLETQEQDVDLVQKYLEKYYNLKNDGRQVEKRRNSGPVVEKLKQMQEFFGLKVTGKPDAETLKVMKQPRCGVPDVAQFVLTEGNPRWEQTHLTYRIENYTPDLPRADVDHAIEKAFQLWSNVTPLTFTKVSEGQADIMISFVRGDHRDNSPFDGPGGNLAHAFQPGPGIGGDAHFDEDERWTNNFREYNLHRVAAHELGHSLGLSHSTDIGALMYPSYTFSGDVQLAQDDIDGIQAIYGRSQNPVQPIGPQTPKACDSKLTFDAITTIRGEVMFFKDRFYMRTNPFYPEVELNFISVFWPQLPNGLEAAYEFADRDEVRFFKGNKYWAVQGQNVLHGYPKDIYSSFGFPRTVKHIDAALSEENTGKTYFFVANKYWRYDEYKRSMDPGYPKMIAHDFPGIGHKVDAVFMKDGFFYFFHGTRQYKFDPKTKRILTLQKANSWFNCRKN
# Measurement Protocol: Inhibition of recombinant human […]-activated MMP1 using Cy3-PLGLK(Cy5Q)AR-NH2 as substrate measured after 40 mins by spectrofluorimetric method

Look over these answered cases.
Compound	IC50
CC(C)[C@H](NS(=O)(=O)c1ccc(-c2cccc(CNC(=O)c3nc4ccccc4c(=O)[nH]3)c2)cc1)C(=O)NO	0.011 µM
O=C(NCc1cccc(OCCCS(=O)(=O)N2CCCCC2C(=O)NO)c1)c1nc2ccccc2c(=O)[nH]1 (stereo not drawn)	> 10 µM
CC(C)[C@H](NS(=O)(=O)c1ccc(-c2cccc(CNC(=O)c3nc4ccccc4c(=O)[nH]3)c2)cc1)C(=O)O	3.4 µM
O=C(NCc1cccc(N2CCN(C(=O)Cc3n[nH]c(=O)[nH]3)CC2)c1)c1nc2ccccc2c(=O)[nH]1	> 10 µM
O=C(NCc1cccc(-c2ccc(CS(=O)(=O)Cc3n[nH]c(=O)[nH]3)cc2)c1)c1nc2ccccc2c(=O)[nH]1	> 10 µM

# input What value of measured IC50 is listed for `CCOCCC1(Oc2ccc(-c3cccc(CNC(=O)c4nc5ccccc5c(=O)[nH]4)c3)cc2)C(=O)NC(=O)NC1=O` ?
# output > 10 µM

# input Subsequent entry: O=C(NCc1cccc(OCCCS(=O)(=O)N2CCCCC2C(=O)O)c1)c1nc2ccccc2c(=O)[nH]1 (stereo not drawn)
# output > 10 µM

# input Subsequent entry: CC(C)C(CS(=O)(=O)c1ccc(-c2cccc(CNC(=O)c3nc4ccccc4c(=O)[nH]3)c2)cc1)N(O)C=O (stereo not drawn)
# output 0.018 µM
